- System: Escherichia coli TOP10;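 further: peptides expressed intracellularly from a pBAD plasmid library in pooled LB shake-flask culture, induced with 0.3% L-arabinose, DNA abundance read by NGS, three biological replicates, DESeq2 with apeglm shrinkage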
- experiment-description: shrunken log2 fold change of peptide-encoding DNA abundance (4.5 h post-induction vs induction); higher = less antimicrobial activity (less host growth inhibition)
- experimental-context: time post-induction: 4.5 h; library: site-saturation at positions 5, 18, 19, 20
measured-property: shrunken log2 fold change

1. RRIRKRPPRLPRPRPRPQAPPRP; 0.537
2. RRIRFRPPRLPRPRPRPWWWPRP; 0.0474
3. RRIRARPPRLPRPRPRPYWRPRP; -0.096
4. RRIRKRPPRLPRPRPRPTWTPRP; 0.0915
5. RRIRQRPPRLPRPRPRPDLRPRP; -0.0102
6. RRIRFRPPRLPRPRPRPEGCPRP; 0.013
7. RRIRSRPPRLPRPRPRPLYQPRP; -0.339
8. RRIRERPPRLPRPRPRPDCEPRP; -0.0494
9. RRIRGRPPRLPRPRPRPRNRPRP; 0.637
10. RRIRVRPPRLPRPRPRPWCDPRP; -0.394
11. RRIRYRPPRLPRPRPRPNAWPRP; -0.165
12. RRIRMRPPRLPRPRPRPCCPPRP; -0.0946
13. RRIRFRPPRLPRPRPRPGETPRP; 0.138
14. RRIRWRPPRLPRPRPRPEPKPRP; 0.393
15. RRIRPRPPRLPRPRPRPMQHPRP; -0.0486
16. RRIRFRPPRLPRPRPRPFLYPRP; -1.04
17. RRIRKRPPRLPRPRPRPKFLPRP; 0.119
18. RRIRFRPPRLPRPRPRPYFMPRP; -1.02
19. RRIRTRPPRLPRPRPRPVIVPRP; -0.314
20. RRIRIRPPRLPRPRPRPGTMPRP; -0.112
21. RRIRQRPPRLPRPRPRPDNPPRP; -0.0388
22. RRIRGRPPRLPRPRPRPEIQPRP; 0.769
23. RRIRHRPPRLPRPRPRPFVKPRP; -1.48
24. RRIRGRPPRLPRPRPRPYLLPRP; -0.407
25. RRIRFRPPRLPRPRPRPRATPRP; 0.691
26. RRIRSRPPRLPRPRPRPFGFPRP; -0.137
27. RRIRERPPRLPRPRPRPHHHPRP; -0.58
28. RRIRTRPPRLPRPRPRPCPYPRP; -0.411
29. RRIRIRPPRLPRPRPRPVMSPRP; -0.0169
30. RRIRQRPPRLPRPRPRPKANPRP; 0.0666
31. RRIRFRPPRLPRPRPRPACGPRP; 0.0797
32. RRIRCRPPRLPRPRPRPLLHPRP; -0.319
